All figures here come from ChEMBL document CHEMBL1201862.

- System: DU-145
- procedureSummary: NCI tumour cell line growth inhibition, 48 h
Active and inactive are the calls of the source. Cut-off read from the data, not from the text of the source: active = GI50 up to about 1.1 µM and inactive = higher. Residues, ends and D or L forms follow the SMILES beside them. *: point of attachment. Boc = CC(C)(C)OC(=O)*; OBn = c1ccc(CO*)cc1; Bn = c1ccc(C*)cc1
Outcomes: active, inactive

[[record]]
compound = "c1csc(-c2ccsc2-c2cccs2)c1"
qualitativelabel = "inactive"

[[record]]
compound = "CC(=O)NC(=N/N=C1/C(=O)Nc2ccc(C)cc21)NC(C)=O"
qualitativelabel = "inactive"

[[record]]
compound = "COc1cc(O)c2c(=O)c(O)c(-c3ccc(O)c(O)c3)oc2c1"
qualitativelabel = "inactive"

[[record]]
compound = "CC1CC/C(=C\\c2ccc(F)cc2)C(=O)/C1=C/c1ccc(F)cc1 (stereo not given)"
qualitativelabel = "inactive"

[[record]]
compound = "COc1cc(-c2c3c(cc4c2OCO4)[C@@H](Nc2ccc4c(c2)Cc2cc(N[C@@H]5c6cc7c(cc6C(c6cc(OC)c(O)c(OC)c6)[C@H]6C(=O)OC[C@H]56)OCO7)ccc2-4)[C@H]2COC(=O)[C@@H]2C3)cc(OC)c1O (stereo not given in full)"
qualitativelabel = "inactive"

[[record]]
compound = "O/N=C1\\CC2(N3CCOCC3)CCC1(c1ccccc1)CC2"
qualitativelabel = "inactive"

[[record]]
compound = "O=CC(I)=C(c1ccccc1)c1ccccc1"
qualitativelabel = "inactive"

[[record]]
compound = "O=C(O)c1nn[nH]c1Cl"
qualitativelabel = "inactive"

[[record]]
compound = "CCCCCCCCCc1c(Cl)nc(Cl)nc1Cl"
qualitativelabel = "inactive"

[[record]]
compound = "COc1ccc2c(c1)C1Oc3ccccc3CC1(O)CO2 (stereo not given)"
qualitativelabel = "inactive"

[[record]]
compound = "N#CC(c1ccccc1)N(CCc1ccccc1)C(=O)c1ccccc1 (stereo not given)"
qualitativelabel = "inactive"

[[record]]
compound = "CCCC(=O)NC(Nc1ccc(S(=O)(=O)Nc2ccc(OC)nn2)cc1)(C(F)(F)F)C(F)(F)F"
qualitativelabel = "inactive"

[[record]]
compound = "CC[C@H](C)[C@H]1NC(=O)[C@@H](NC(=O)[C@@H](CC(C)C)N(C)C(=O)C2CCCN2C(=O)[C@H](C)O)[C@@H](C)OC(=O)[C@H](Cc2ccccc2)N(C)C(=O)[C@@H]2CCCN2C(=O)[C@H](CC(C)C)NC(=O)[C@@H](C)C(=O)[C@H](C(C)C)OC(=O)C[C@@H]1O (stereo not given in full)"
qualitativelabel = "active"

[[record]]
compound = "O=c1oc2c(Cl)cc(Cl)cc2cc1C1=CSC2=NCCN12"
qualitativelabel = "inactive"

[[record]]
compound = "N#CC1=C(S)N(C2OC(CO)C(O)C(O)C2O)C(c2ccccc2)=CC1c1ccccc1 (stereo not given)"
qualitativelabel = "inactive"

[[record]]
compound = "C/C(=N/c1[nH]c(=O)cc2c1C(=O)CC2)N(C)C"
qualitativelabel = "inactive"

[[record]]
compound = "O=C(O)c1cccc(OCCOc2cccc(C(=O)O)c2[N+](=O)[O-])c1[N+](=O)[O-]"
qualitativelabel = "inactive"

[[record]]
compound = "O=C1/C(=C/c2ccc([N+](=O)[O-])cc2)CNC/C1=C\\c1ccc([N+](=O)[O-])cc1"
qualitativelabel = "inactive"

[[record]]
compound = "CCC(C=O)P1(=O)OC(C)(C)CN1C(C)(C)C (stereo not given)"
qualitativelabel = "inactive"

[[record]]
compound = "CC(C)[Si](OCC/C=C/C1CCC(=O)C1C(O)C1CCCCC1)(C(C)C)C(C)C (stereo not given)"
qualitativelabel = "inactive"

[[record]]
compound = "NC1=CN(Cc2ccccc2)C2=N/C(=C\\c3ccccc3)C(=O)N12"
qualitativelabel = "inactive"

[[record]]
compound = "COc1ccc(OC)c2c(=S)c3ccccc3[nH]c12"
qualitativelabel = "inactive"

[[record]]
compound = "CC(C)NC(=O)OCCN=C1c2ccccc2C(Br)C(Br)c2ccccc21 (stereo not given)"
qualitativelabel = "inactive"

[[record]]
compound = "CC(C)CC(NC(=O)C(Cc1ccccc1)NC(=O)C(COCc1ccccc1)NC(=O)OC(C)(C)C)C(=O)OCc1ccccc1 (stereo not drawn) (Boc-Ser(Bn)-Phe-Leu-OBn; configuration not given here)"
qualitativelabel = "inactive"

[[record]]
compound = "C1CCN2CC34CC(CC5CCCN(C6CCCC3N6)C54)C2C1 (stereo not given)"
qualitativelabel = "inactive"

[[record]]
compound = "S=C=NC1CCC(c2cc3ccccc3s2)(N2CCCCC2)CC1 (stereo not given)"
qualitativelabel = "inactive"

[[record]]
compound = "CSC1(SC)CCCCCCCCCCC1"
qualitativelabel = "inactive"

[[record]]
compound = "COc1nc2c(c(=O)n1C)N(C(C)=O)C1C(N2)OCC(OC(C)=O)C1OC(C)=O (stereo not given)"
qualitativelabel = "inactive"

[[record]]
compound = "O=C(/C=C/c1ccc([N+](=O)[O-])cc1)N1CCN(CCOC(c2ccc(F)cc2)c2ccc(F)cc2)CC1"
qualitativelabel = "inactive"

[[record]]
compound = "C(CCCCc1nnc(N2CCOCC2)o1)CCCc1nnc(N2CCOCC2)o1"
qualitativelabel = "inactive"

[[record]]
compound = "Cc1cccc2c1NC(=S)[C@@H]1CCCN1C2=O"
qualitativelabel = "inactive"

[[record]]
compound = "CCCCCCCCCCCCn1c(=O)cc(NCCCC)c2cc3c(NCCCC)cc(=O)n(CCCCCCCCCCCC)c3nc21"
qualitativelabel = "inactive"

[[record]]
compound = "COc1ccc(CCCNC(=O)Cc2cc(OC)c(OC)cc2CO)cc1OC"
qualitativelabel = "inactive"

[[record]]
compound = "COc1ccc(CCNC2=CC(=O)c3ncccc3C2=O)cc1OC"
qualitativelabel = "inactive"

[[record]]
compound = "COc1cc(C2c3cc4c(cc3OC(NNc3ccccc3)C2C)OCO4)cc(OC)c1OC (stereo not given)"
qualitativelabel = "inactive"

[[record]]
compound = "CC(=O)OC1COC(n2nc(N)nc2C)C(OC(C)=O)C1OC(C)=O (stereo not given)"
qualitativelabel = "inactive"

[[record]]
compound = "COc1ccc(N2C(=O)C3c4[nH]c5c(C)cccc5c4C4CCC(C(C)(C)C)CC4C3C2=O)cc1 (stereo not given)"
qualitativelabel = "inactive"

[[record]]
compound = "CN(C)c1ccc(-c2nc(-c3cc4c(ccc5ccccc54)oc3=O)cs2)cc1"
qualitativelabel = "inactive"

[[record]]
compound = "COC(=O)Cc1ccc2c(c1)Sc1ccc(CC(=O)OC)cc1N2C"
qualitativelabel = "inactive"

[[record]]
compound = "COc1ccc2cc(C(=O)Nc3ccc(O)c(C(=O)O)c3)ccc2c1OC"
qualitativelabel = "inactive"

